Listed binders paired with reported kon
- EXPERIMENTAL TARGET: T1, cynoSIRPα (NP_001271679), Extracellular Domain + His-Tag (cynomolgus monkey)
- T1 construct: also called CySIRPα NP_001271679; not shown: His-Tag
- T1 chain: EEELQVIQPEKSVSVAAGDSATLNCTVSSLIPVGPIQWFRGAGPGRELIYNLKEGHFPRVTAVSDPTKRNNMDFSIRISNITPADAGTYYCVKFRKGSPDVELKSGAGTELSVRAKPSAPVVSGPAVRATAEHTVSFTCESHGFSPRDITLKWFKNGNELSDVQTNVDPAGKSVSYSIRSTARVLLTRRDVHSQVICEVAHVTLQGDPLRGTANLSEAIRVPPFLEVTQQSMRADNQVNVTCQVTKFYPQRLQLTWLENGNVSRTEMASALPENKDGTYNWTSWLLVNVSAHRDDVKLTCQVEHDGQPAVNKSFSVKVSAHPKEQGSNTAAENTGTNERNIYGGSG
- ASSAY SUMMARY: SPR, antibody captured on Protein A/G, ECD-His analyte, 1:1 fit
MEASUREMENT LABEL: kon (M⁻¹ s⁻¹)

Antibody E9 (antibody, human IgG1, kappa, L234A L235A, V domains shown) VH: QVQLQESGPGLVRPSETLSLTCTVSGGSIRNYYWSWIRQPPGKGLEWIGFIYYNGRTFYNPSLKSRVTISLDMSINQFSLKMTSVTAADTAVYYCARVRAYSGIGLDGTDVWGQGTTVTVSS VL: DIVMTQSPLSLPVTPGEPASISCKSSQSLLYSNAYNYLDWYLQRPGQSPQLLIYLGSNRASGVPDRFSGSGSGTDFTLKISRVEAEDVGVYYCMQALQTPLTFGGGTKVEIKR :: 321000
Antibody E6 (antibody, human IgG1, kappa, L234A L235A, V domains shown) VH: QVQLQESGPGLVRPSETLSLTCTVSGGSIRNYYWSWIRQPPGKGLEWIGFIYYNGRTFYNPSLKSRVTISLDKSKNQFSLKMTSVTAADTAVYYCARVRAYSGIGLDGTDVWGQGTTVTVSS VL: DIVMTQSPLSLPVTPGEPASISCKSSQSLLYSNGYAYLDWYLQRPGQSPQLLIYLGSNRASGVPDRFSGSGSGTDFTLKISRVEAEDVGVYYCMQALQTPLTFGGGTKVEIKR :: 189000
Antibody E15 (antibody, human IgG1, kappa, L234A L235A, V domains shown) VH: QVQLQESGPGLVRPSETLSLTCTVSGGSIRNYYWSWIRQPPGKGLEWIGFIYYTGRTFYNPSLKSRVTISLDMSINQFSLKMTSVTAADTAVYYCARVRAYSGIGLDGTDVWGQGTTVTVSS VL: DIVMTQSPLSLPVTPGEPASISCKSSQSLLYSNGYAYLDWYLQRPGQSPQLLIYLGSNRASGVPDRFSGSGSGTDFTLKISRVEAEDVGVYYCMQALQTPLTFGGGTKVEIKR :: 243000
